Biological target: Ectonucleotide pyrophosphatase/phosphodiesterase family member 1 (Homo sapiens)
Sequence (P22413 whole entry): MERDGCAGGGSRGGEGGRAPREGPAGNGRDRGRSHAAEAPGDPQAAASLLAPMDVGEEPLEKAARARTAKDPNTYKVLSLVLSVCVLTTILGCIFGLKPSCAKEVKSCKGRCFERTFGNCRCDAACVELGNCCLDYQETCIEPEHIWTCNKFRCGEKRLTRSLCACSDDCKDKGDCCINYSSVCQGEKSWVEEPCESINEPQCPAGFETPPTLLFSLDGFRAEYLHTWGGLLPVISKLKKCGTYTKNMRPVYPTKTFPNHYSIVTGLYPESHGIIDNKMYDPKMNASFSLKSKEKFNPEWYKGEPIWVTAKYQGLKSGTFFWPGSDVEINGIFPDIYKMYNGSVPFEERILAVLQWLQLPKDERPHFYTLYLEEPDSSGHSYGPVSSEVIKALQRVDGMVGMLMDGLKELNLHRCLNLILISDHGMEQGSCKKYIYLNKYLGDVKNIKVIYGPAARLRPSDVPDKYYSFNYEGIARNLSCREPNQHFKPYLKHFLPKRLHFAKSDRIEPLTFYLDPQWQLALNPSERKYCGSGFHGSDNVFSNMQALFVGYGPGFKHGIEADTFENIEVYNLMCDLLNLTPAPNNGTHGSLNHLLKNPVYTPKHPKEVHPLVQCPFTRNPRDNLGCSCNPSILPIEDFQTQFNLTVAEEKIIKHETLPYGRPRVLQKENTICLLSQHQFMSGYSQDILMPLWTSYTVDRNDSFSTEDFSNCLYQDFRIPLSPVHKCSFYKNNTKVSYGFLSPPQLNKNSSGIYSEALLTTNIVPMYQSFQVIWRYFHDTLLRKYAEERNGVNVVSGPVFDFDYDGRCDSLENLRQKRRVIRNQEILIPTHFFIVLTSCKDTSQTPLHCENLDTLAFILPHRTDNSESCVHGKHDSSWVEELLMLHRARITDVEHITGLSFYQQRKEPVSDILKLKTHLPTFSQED
Experiment: Inhibition of human recombinant NPP1 expressed in COS-7 cell membrane […] using p-nitrophenyl thymidine monophosphate substrate incubated for 35 mins by spectrophotometric analysis
// IC50 lookup, one value per entry
Could you give the number and then its unit, please?

Sample records with IC50:
{"SMILES INPUT": "Cc1nc(-c2ccc(-c3ccc(OCc4ccccc4)cc3)cc2)co1", "IC50": "1.44 µM"}
{"SMILES INPUT": "Cc1ccccc1-c1ccc(-c2coc(-c3ccccc3)n2)cc1", "IC50": "0.42 µM"}
{"SMILES INPUT": "Cc1ccc(-c2ccc(-c3coc(C)n3)cc2)cc1", "IC50": "2.56 µM"}
{"SMILES INPUT": "COc1ccc(-c2ccc(-c3coc(-c4ccccc4)n3)cc2)cc1", "IC50": "17.2 µM"}
{"SMILES INPUT": "Cc1nc(-c2ccc(-c3cccc4ccccc34)cc2)co1", "IC50": "2.41 µM"}
{"SMILES INPUT": "CCOc1ccccc1-c1nc(-c2ccc(-c3cccc4ccccc34)cc2)co1", "IC50": "0.15 µM"}

Next item in the queue.
Specify reported IC50 for the molecule shown: `CCOc1ccccc1-c1nc(-c2ccc(-c3ccc(C)cc3)cc2)co1`
9.23 µM

----------
molecular target: Ectonucleotide pyrophosphatase/phosphodiesterase family member 3 (Homo sapiens); assay: Inhibition of human recombinant NPP3 expressed in COS-7 cell membrane […] using p-nitrophenyl thymidine monophosphate substrate incubated for 35 mins by spectrophotometric analysis
Sequence (O14638 whole entry): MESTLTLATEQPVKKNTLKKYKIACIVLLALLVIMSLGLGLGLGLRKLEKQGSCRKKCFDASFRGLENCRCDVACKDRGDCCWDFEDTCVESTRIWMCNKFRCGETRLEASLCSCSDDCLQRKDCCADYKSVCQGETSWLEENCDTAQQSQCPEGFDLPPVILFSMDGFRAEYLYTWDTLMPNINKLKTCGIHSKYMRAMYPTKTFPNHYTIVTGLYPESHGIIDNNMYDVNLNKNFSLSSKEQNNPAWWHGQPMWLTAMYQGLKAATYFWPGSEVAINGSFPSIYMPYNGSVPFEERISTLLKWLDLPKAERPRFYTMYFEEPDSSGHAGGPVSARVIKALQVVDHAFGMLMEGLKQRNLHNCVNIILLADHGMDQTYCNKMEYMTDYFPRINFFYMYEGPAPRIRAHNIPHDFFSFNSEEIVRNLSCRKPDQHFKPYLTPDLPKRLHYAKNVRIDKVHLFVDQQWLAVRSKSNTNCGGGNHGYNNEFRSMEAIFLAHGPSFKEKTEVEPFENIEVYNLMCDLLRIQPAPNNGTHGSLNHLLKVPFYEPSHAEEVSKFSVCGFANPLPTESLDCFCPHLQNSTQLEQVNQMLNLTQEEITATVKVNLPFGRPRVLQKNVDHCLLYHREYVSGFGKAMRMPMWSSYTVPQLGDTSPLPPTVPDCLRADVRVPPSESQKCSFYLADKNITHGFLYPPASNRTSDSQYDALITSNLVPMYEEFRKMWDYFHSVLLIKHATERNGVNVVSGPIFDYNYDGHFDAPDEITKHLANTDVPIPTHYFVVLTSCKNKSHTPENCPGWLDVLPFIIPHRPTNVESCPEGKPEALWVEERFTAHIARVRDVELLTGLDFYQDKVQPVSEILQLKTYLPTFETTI
// IC50 lookup, one value per entry
Kindly answer with a numeric value in µM, unit omitted.

Sample records with IC50:
{"SMILES INPUT": "Cc1cccc(-c2ccc(-c3coc(-c4ccccc4-c4cccc(C)c4)n3)cc2)c1", "IC50 (µM)": 2.21}
{"SMILES INPUT": "CCOc1ccccc1-c1nc(-c2ccc(-c3ccc(C)cc3)cc2)co1", "IC50 (µM)": 11.1}
{"SMILES INPUT": "Cc1ccc(-c2ccc(-c3coc(C)n3)cc2)cc1", "IC50 (µM)": 5.06}
{"SMILES INPUT": "COc1ccc(-c2ccc(-c3coc(C)n3)cc2)cc1", "IC50 (µM)": 0.17}
{"SMILES INPUT": "Cc1nc(-c2ccc(-c3cccc4ccccc34)cc2)co1", "IC50 (µM)": 0.15}

Enter IC50 (test system Ectonucleotide pyrophosphatase/phosphodiesterase family member 3 (Homo sapiens)) for `Cc1nc(-c2ccc(-c3ccc(OCc4ccccc4)cc3)cc2)co1`
1.31

Enter IC50 (test system Ectonucleotide pyrophosphatase/phosphodiesterase family member 3 (Homo sapiens)) for `Cc1cccc(-c2ccc(-c3coc(C)n3)cc2)c1`
1.7

Enter IC50 (test system Ectonucleotide pyrophosphatase/phosphodiesterase family member 3 (Homo sapiens)) for `COc1ccc(-c2ccc(-c3coc(-c4ccccc4)n3)cc2)cc1`
3.73

Enter IC50 (test system Ectonucleotide pyrophosphatase/phosphodiesterase family member 3 (Homo sapiens)) for `Cc1ccccc1-c1ccc(-c2coc(-c3ccccc3)n2)cc1`
4.23

----------
// inhibition lookup, one value per entry
target: Ectonucleotide pyrophosphatase/phosphodiesterase family member 3 (Homo sapiens); assay: Inhibition of human recombinant NPP3 expressed in COS-7 cell membrane using p-nitrophenyl thymidine monophosphate substrate incubated for 35 mins by spectrophotometric analysis; set-up: concentration or dose not given beside the values
Kindly answer with a numeric value in %, unit omitted.

Sample records with inhibition:
{"SMILES INPUT": "CCOc1ccccc1-c1nc(-c2ccc(-c3ccccc3)cc2)co1", "ASSAY RESULT": 48}
{"SMILES INPUT": "Cc1nc(-c2ccc(-c3ccccc3)cc2)co1", "ASSAY RESULT": 43}
{"SMILES INPUT": "c1ccc(-c2ccc(-c3coc(-c4ccccc4)n3)cc2)cc1", "ASSAY RESULT": 49}
{"SMILES INPUT": "Cc1nc(-c2ccc(-c3ccccc3C)cc2)co1", "ASSAY RESULT": 45}
{"SMILES INPUT": "c1ccc(-c2ccc(-c3coc(-c4ccccc4-c4ccccc4)n3)cc2)cc1", "ASSAY RESULT": 47}
{"SMILES INPUT": "CCOc1ccccc1-c1nc(-c2ccc(-c3cccc4ccccc34)cc2)co1", "ASSAY RESULT": 40}

Next item in the queue.
Specify reported inhibition for the compound shown: `c1ccc(-c2nc(-c3ccc(-c4cccc5ccccc45)cc3)co2)cc1`
43

Ref: ChEMBL document CHEMBL4706555
